testedTarget: BCL-XLΔC (Homo sapiens)
Sequence (Q07817 1-212 limits assumed, stated change not applied): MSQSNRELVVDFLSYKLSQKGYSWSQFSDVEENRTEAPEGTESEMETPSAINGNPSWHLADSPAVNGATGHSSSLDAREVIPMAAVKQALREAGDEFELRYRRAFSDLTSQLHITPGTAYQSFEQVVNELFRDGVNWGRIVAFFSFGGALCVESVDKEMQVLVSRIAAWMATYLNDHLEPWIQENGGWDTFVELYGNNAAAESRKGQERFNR
methodDescription: Competitive FP assay against the FITC-BID BH3/BCL-XLΔC interaction
pIC50: −log10 of the molar value.
observedProperty: pIC50

Request: Field request: pIC50 | item: Cc1cs/c(=N\C2CCCCC2)n1/N=C/c1ccc(O)c(O)c1O [MIM1]
Result: < 4.30

====

testedTarget: MCL-1ΔNΔC (Homo sapiens, UniProt Q07820)
Sequence (Q07820 172-327, stated change not applied): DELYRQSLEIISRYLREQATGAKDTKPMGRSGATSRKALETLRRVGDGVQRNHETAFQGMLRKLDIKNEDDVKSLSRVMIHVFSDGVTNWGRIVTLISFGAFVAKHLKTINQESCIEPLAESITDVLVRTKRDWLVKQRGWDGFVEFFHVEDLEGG
methodDescription: Competitive FP assay against the FITC-BID BH3/MCL-1ΔNΔC interaction
observedProperty: pIC50
Remember the convention: pIC50 equals -log10 of concentration in molar.

Request: pIC50 lookup needed for Cc1cs/c(=N\C2CCCCC2)n1/N=C/c1ccc(O)c(O)c1O [MIM1] , thanks.
Result: 5.32
